List of DRx β-Arrestin pA2 values.
Target: T1, human apelin receptor (human, UniProt P35414 1-380)
T1 sequence (looked up): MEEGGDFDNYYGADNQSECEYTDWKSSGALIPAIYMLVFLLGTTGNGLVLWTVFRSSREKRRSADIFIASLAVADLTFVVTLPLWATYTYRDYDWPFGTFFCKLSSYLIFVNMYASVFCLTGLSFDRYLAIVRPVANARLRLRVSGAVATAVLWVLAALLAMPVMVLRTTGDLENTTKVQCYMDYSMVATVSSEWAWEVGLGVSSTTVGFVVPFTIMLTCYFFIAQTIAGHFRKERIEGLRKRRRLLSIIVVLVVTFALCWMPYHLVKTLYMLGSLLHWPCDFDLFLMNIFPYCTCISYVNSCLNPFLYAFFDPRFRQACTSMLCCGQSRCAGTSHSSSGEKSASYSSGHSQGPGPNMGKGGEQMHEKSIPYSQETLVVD
Assay: cell-based or functional assay
Non-standard residues stand in square brackets, D forms with d. No end group written: not given here. Phe(3,4,5-F3) = N[C@@H](Cc1cc(F)c(F)c(F)c1)C(=O)O; Nle = CCCC[C@H](N)C(=O)O; Aib = CC(C)(N)C(=O)O

Solved entries:
CRPRLCKHCRPRLC (Linear peptide) [MM108] :: 7.41
CRPR[Nle]CKHCR[Aib]R[Nle][Phe(3,4,5-F3)] (cysteine pairing not given here, also called CRPR-Nle-CKHCR-Aib-R-Nle-(3,4,5-trifluoro-)F) [MM193] :: 7.68
QRPR[Nle]CKHCR[Aib]R[Nle][Phe(3,4,5-F3)] (cysteine pairing not given here, also called QRPR-Nle-CKHCR-Aib-R-Nle-(3,4,5-trifluoro-)F) [MM262] :: 7.53

Proceeding to the next binder to report its DRx β-Arrestin pA2.
Query: Identify the reported DRx β-Arrestin pA2 for the following entry. CRPRLCHKCRPRLC [MM107]
Result: 7.24

All figures here come from patent US20240279280A1.
